These data points were gathered from the supplement of paper PMC9399229.

Test system: Hep3B
PROTOCOL_TEXT: relative cell viability (CellTiter-Glo), compound plus cabozantinib, relative to the cabozantinib arm (arm median 1.05; reference not stated) (fraction); higher = more viable cells (less growth inhibition)
CONDITIONS_USED: cabozantinib 2 µM; 4 days
Where a name gives a salt, the structure may show the parent alone. In all, about 1,900 compounds were measured (“relative cell viability (CellTiter-Glo), compound plus cabozantinib, relative to the cabozantinib arm (arm median 1.05; reference not stated)”: median about 1.1, lowest 2% from about 0.15 on). What follows is part of a selection rich in the lowest values, with near analogues and random picks from the rest.
REPORTED_METRIC: relative cell viability

* CCCCc1nc2cc(/C=C/C(=O)NO)ccc2n1CCN(CC)CC [Pracinostat (SB939)] | 0.147
* O=C(O[C@H]1CN2CCC1CC2)N1CCc2ccccc2[C@@H]1c1ccccc1 [Solifenacin succinate] | 1.11
* CCOc1cc2ncc(C#N)c(Nc3ccc(F)c(Cl)c3)c2cc1NC(=O)/C=C/CN(C)C [Pelitinib (EKB-569)] | 0.9
* O=C(O)c1cc(C(F)(F)F)ccc1N1CC[C@H](OCc2ccccn2)C1 | 0.958
* C[C@H]1COC2=C1C(=O)C(=O)c1c2ccc2c1CCCC2(C)C | 0.918
* COc1nc(C)cnc1NS(=O)(=O)c1cccnc1-c1ccc(-c2nnco2)cc1 [Zibotentan (ZD4054)] | 1.22
* Cc1nc2c([nH]1)-c1ccccc1N(C(=O)c1ccc(NC(=O)c3ccccc3-c3ccccc3)cc1)CC2 [Conivaptan HCl] | 0.972
* CCc1c(C(=O)NCCc2ccc(N3CCCCC3)cc2)[nH]c2ccc(Cl)cc12 | 0.997
* CN(C)Cc1ccc(S(=O)(=O)n2ccc(/C=C/C(=O)NO)c2)cc1 | 0.59
* CCOC(=O)[C@H](CCc1ccccc1)N[C@@H](C)C(=O)N1CCC[C@H]1C(=O)O [Enalapril Maleate] | 1.15
* Cc1ccc2c(=O)c3cccc(CC(=O)O)c3oc2c1C | 1.17
* NC(=O)Nc1cc(-c2cccc(F)c2)sc1C(=O)N[C@H]1CCCNC1 | 0.162
* OC[C@H]1O[C@@H](OCCc2ccc(O)cc2)[C@H](O)[C@@H](O)[C@@H]1O [Salidroside] | 0.974
* O=C(COc1ccc(C(=O)c2ccccc2)cc1)NC1CCN(Cc2ccccc2)CC1 | 1.06
* O=C(/C=C/c1ccc(CN(CCO)CCc2c[nH]c3ccccc23)cc1)NO | 0.11
* OCc1c[nH]c2ccccc12 | 1.11
* C[C@@H](CN1CC(=O)NC(=O)C1)N1CC(=O)NC(=O)C1 [Dexrazoxane HCl (ICRF-187, ADR-529)] | 1.1
